experimental-details: NCI Yeast Anticancer Drug Screen. Data for the rad50EPP+ strain (AID 151);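 note: 0% = growth of vehicle-treated control cultures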
protocol-conditions: S. cerevisiae rad50 mutant strain, at 33.0 µM, stronger effect = higher value
The panel holds about 79,000 compounds, 15% with a hit somewhere; the sample as a whole holds those more often.
growth inhibition below 50% gives not met; growth inhibition at or above it gives met.

Quick check, growth inhibition >= 50%? O=S1(=O)CCC2=CC(C(F)(F)F)=CC(C(F)(F)F)=CN21
not met

Record CCOC(=O)C(Cc1c2ccccc2cc2ccccc12)(NC(C)=O)C(=O)OCC ; criterion: growth inhibition no lower than 50%. Met?
not met

Is reported growth inhibition greater than or equal to 50% here: COc1cc([N+](=O)[O-])c2ncccc2c1Br
not met

# next molecule below
Test whether the molecule CC(=O)O[C@H]1CC[C@@]2(C)C(=CC[C@@H]3C2CC[C@]2(C)C(=O)NC(=O)CC32)C1 (stereo partly specified) records growth inhibition of 50% or higher.
met

====

Catalogue of growth inhibition readings, one per entry.
experimental-details: NCI Yeast Anticancer Drug Screen. Data for the CLN2oe strain (AID 163);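 note: 0% = growth of vehicle-only control cultures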
protocol-conditions: S. cerevisiae CLN2oe strain, at 1.2 µM, stronger effect = higher value
Experimental: Growth inhibition of yeast strains with defined genetic alterations is measured as a screen for potential anti-cancer activity. Selected strains with alterations in DNA damage repair or cell cycle control were exposed to compounds and growth inhibition was measured relative to vehicle treated controls. The strain used in this assay is CLN2oe
Compounds without any hit were thinned out: in the full panel of roughly 79,000, 15% have a hit.
Field format: number, assumed %, no unit text.

Kindly indicate its recorded growth inhibition. Item: COC1=CCC23C(=O)C=CC(=O)C2(C1)C(=O)c1ccccc1C3=O (stereo not drawn)
17

Give reported growth inhibition value for COc1cc(OC)c(CSCC(NC(=O)OCC2c3ccccc3-c3ccccc32)C(=O)O)c(OC)c1 (stereo not drawn)
0

Supply recorded growth inhibition for O=C(Cc1ccccc1)NNc1nc(NNC(=O)c2ccncc2)nc(Nc2ccc(Cl)cc2)n1 here.
-14

Give me measured growth inhibition, please, for this compound: S=C1N(c2ccc(Cl)cc2)C2=C(N=Nc3ccccc3)C(=Nc3ccccc3S2)N1c1ccccn1
-3

Supply measured growth inhibition of O=C(CN(c1ccccc1)c1ccccc1)n1nnc2ccccc21 in your reply.
8

Indicate its recorded growth inhibition; the compound in question is O=C(C(Cl)=C(N1CCCCC1)N1CCCCC1)C(Cl)Cl
2

For the compound O=c1c2ccccc2nc(-c2cccc([N+](=O)[O-])c2)n1O , give its reported growth inhibition.
6

Look up and state reported growth inhibition for Nc1cccc(-c2cc[cH-]c2)c1.[Fe+2].c1cc[cH-]c1
-11

Identify measured growth inhibition corresponding to Cc1cc(OCc2nc(N)nc(N)c2-c2ccc(Cl)c(Cl)c2)ccc1[N+](=O)[O-]
0

====

experimental-details: NCI Yeast Anticancer Drug Screen. Data for the mgt1 strain (AID 153)
protocol-conditions: S. cerevisiae mgt1 mutant growth inhibition; at 33.0 µM
This is part of a sample that, as a whole, favours compounds with a hit. Of some 79,000 tested, about 15% had one in any assay. Calls of active or inactive are those of the source. No stated cut-off is given here; in the data, active means growth inhibition above about 70%; inactive means the rest.
Would you mind answering with one of these outcomes? class 1 for active, class 0 for inactive

Given CC12CCC(CC(=O)/C1=C(/Br)I)C2(C)C (stereo unspecified) , state the outcome it received in this test.
class 0

Let us examine a further case.
Test call for this compound, please: Cc1cc(OCc2nc(N)nc(N)c2-c2ccc(Cl)c(Cl)c2)ccc1[N+](=O)[O-]
class 0

====

experimental-details: NCI Yeast Anticancer Drug Screen. Data for the rad14 strain (AID 159);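 note: 0% = growth of vehicle-treated control cultures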
protocol-conditions: S. cerevisiae rad14 strain growth inhibition; at 100.0 µM; stronger effect = higher value
The panel holds about 79,000 compounds, 15% with a hit somewhere; the sample as a whole holds those more often.
property-measured: growth inhibition (%)
Report only the number, with the unit % understood.

// fetch growth inhibition given entry CCC(=O)Nc1ccc(N=NN(C)C)cc1
99

Fill in reported growth inhibition for this entry: CC1CN(/N=C\c2ccc([N+](=O)[O-])o2)C(=O)O1 (stereo unspecified)
47

Read the entry NC(N)=NC(N)=Nc1ccccc1 (tested in a mixture with another compound) and write its reported growth inhibition.
60

Give the value of growth inhibition reported for the following: COc1ccc2nc(CCc3ccccc3)ccc2c1
95

Using the record for O=C1c2cccc3cccc(c23)C(=O)N1O , state its measured growth inhibition.
97

Consider the compound CN(C)CC1=Nc2cccc3cccc(c23)N1 and give its recorded growth inhibition.
88

Write down growth inhibition measured for item OC(CC(O)(C(F)(F)F)C(F)(F)F)c1ccc(C(O)CC(O)(C(F)(F)F)C(F)(F)F)cc1 (stereo unspecified)
99

====

experimental-details: NCI Yeast Anticancer Drug Screen. Data for the rad50 strain (AID 155);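 note: 0% = growth of vehicle-only cultures of the same strain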
protocol-conditions: S. cerevisiae rad50 strain growth inhibition; at 5.0 µM (retest, dose inferred, filed as 0.5); stronger effect = higher value
This is part of a sample that, as a whole, favours compounds with a hit. Of some 79,000 tested, about 15% had one in any assay. Active and inactive are the calls of the source. No stated cut-off is given here; in the data, active means growth inhibition above about 70%; inactive means the rest.
property-measured: growth inhibition

These solved cases illustrate the format of a correct answer.
Answer with the recorded growth inhibition for the compound listed here: CC(C)C(c1ccccc1)c1ccccc1
-144% (inactive)

Give the reported value of growth inhibition for this record: CC(=O)/C=C/c1cccc([N+](=O)[O-])c1
-4% (inactive)

Entry O=C1c2cccc3cccc(c23)C(=O)N1CCNCCN1C(=O)c2cccc3cccc(c23)C1=O needs its growth inhibition filled in; supply it.
19% (inactive)

More entries:
Consider the compound CCOc1ccc(N)c(S)c1 and give its recorded growth inhibition.
0% (inactive)

Please report the measured growth inhibition for Nc1cc2c(cc1N)-c1ccccc1C2=O
4% (inactive)

Input CCN(CC)CCCNc1ccc([N+](=O)[O-])c2nc3ccc(OC)cc3c(NCCCN(CC)CC)c12 , output reported growth inhibition.
23% (inactive)

Output growth inhibition of O=C1/C(=C/c2ccc(Cl)c(Cl)c2)CNC/C1=C\c1ccc(Cl)c(Cl)c1
19% (inactive)

Annotate the compound N#CSCC1COc2ccccc2O1 (configuration not stated) with its measured growth inhibition.
-5% (inactive)

// Input: C=COC(=O)N[C@H]1CCc2cc(OC)c(OC)c(OC)c2-c2ccc(SC)c(=O)cc21 . Output its growth inhibition only.
-6% (inactive)

State, in one line, measured growth inhibition of CC1CN(/N=C\c2ccc([N+](=O)[O-])o2)C(=O)O1 (configuration not stated)
8% (inactive)

Consider the compound CN(N=O)C(=O)Nc1ccc(C(=O)O)cc1 and give its recorded growth inhibition.
12% (inactive)

Could you please provide reported growth inhibition for CC1=CC(C)(C)SC(SSSC2=NC(C)=CC(C)(C)S2)=N1 ? Thanks!
-6% (inactive)

====

experimental-details: NCI Yeast Anticancer Drug Screen. Data for the rad50 strain (AID 155);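 note: 0% = growth of vehicle-only cultures of the same strain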
protocol-conditions: S. cerevisiae rad50 strain growth inhibition; at 5.0 µM (retest, dose inferred, filed as 0.5)
This is part of a sample that, as a whole, favours compounds with a hit. Of some 79,000 tested, about 15% had one in any assay. Calls of active or inactive are those of the source. No stated cut-off is given here; in the data, active means growth inhibition above about 70%; inactive means the rest.
Please reply with one of these outcomes: t for active, f for inactive

Previously resolved entries follow.
Given COc1ccc(C(C)c2cc3c(cc2OC(C)O)OCO3)cc1 (stereo unspecified) , state the outcome it received in this test.
f

What outcome does the record of this test show for CCCCCCCCCCCCCCCCCCN(C)C(COC)COP(=O)([O-])OCC[N+](C)(C)C (stereo unspecified) ?
f

Give the logged outcome of this assay for the following molecule: CCCN=Cc1cc(Cc2ccc(O)c(C=NCCC)c2)ccc1O
t

What is the recorded call for this molecule in the test? Cc1cccc2c1C1c3c(C)cccc3C(CC(=O)O)CC1CC2 (stereo unspecified)
f

// outcome(item) with item = O=[N+]([O-])[O][Sn]([O][Sn]([O][N+](=O)[O-])([c]1ccccc1)[c]1ccccc1)([c]1ccccc1)[c]1ccccc1
f

Can you look up the reported call for C/C(=N/NC(=S)Nc1ccccc1C)c1ccccn1 for me?
f

Hi, do you know how Nc1cc(Cl)ccc1Nc1ccccc1 came out in this test?
f

Which outcome did this test record for the molecule CC(=O)N1C=Cc2c(c(C)c3c([nH]c4ccccc43)c2C)C1 ?
t

More entries:
How was CCCNC(=O)OCc1c(COC(=O)NCCC)c(-c2ccc(Cl)c(Cl)c2)n2c1CCC2 classified in this test?
f

Answer briefly: the call reported for Cc1cccc(/C=N/NC(=S)NC2CCCCC2)n1 in this assay.
f

Any idea what this test logged for CC(=O)O[C@H]1CC[C@@]2(C)C(=CC[C@@H]3C2CC[C@]2(C)C(=O)NC(=O)CC32)C1 (stereo partly specified) ?
f

====

experimental-details: NCI Yeast Anticancer Drug Screen. Data for the rad14 strain (AID 159);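 note: 0% = growth of vehicle-treated control cultures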
protocol-conditions: S. cerevisiae rad14 strain growth inhibition; at 3.7 µM
This is part of a sample that, as a whole, favours compounds with a hit. Of some 79,000 tested, about 15% had one in any assay. The source made the active and inactive calls. Cut-off read from the data, not from the text of the source: active = growth inhibition above about 70%; inactive = the rest.
Result category, one only: active, inactive

Look up the recorded call for O=C(/N=N/C(=O)Oc1ccccc1)Oc1ccccc1 in this test.
inactive

Data provenance is PubChem BioAssay (NCI).
